# TEST DESCRIPTION: Biodistribution of ^nat/52Mn-based probes in naïve mice
# Assay type: in vivo, mouse
# CONDITION LABEL: 24 h post injection
MEASURED METRIC: Biodistribution, Blood

Look over these answered cases.
Biodistribution, Blood reading for NOC(CCC(=O)NCCCN1CCN(CC(=O)[O-])Cc2cccc(n2)CN(CC(=O)[O-])CC1)C(=O)O.[Mn+2] (stereo not shown) : 0.0051 % ID/g

Biodistribution, Blood reading for NNC(CCC(=O)NCCCN1CCN(CC(=O)[O-])Cc2cccc(n2)CN(CC(=O)[O-])CC1)C(=O)O.[Mn+2] (stereo not shown) : 0.0018 % ID/g

Biodistribution, Blood reading for `NNCC(=O)NCCCN1CCN(CC(=O)[O-])Cc2cccc(n2)CN(CC(=O)[O-])CC1.[Mn+2]` : 0.0020 % ID/g

Others:
Biodistribution, Blood reading for CN(C)C(CCC(=O)NCCCN1CCN(CC(=O)[O-])Cc2cccc(n2)CN(CC(=O)[O-])CC1)C(=O)O.[Mn+2] (stereo not shown) : 0.0013 % ID/g

###

# TEST DESCRIPTION: Biodistribution of ^nat/52Mn-based probes in naïve mice
# Type: in vivo, mouse
# CONDITION LABEL: 24 h post injection
MEASURED METRIC: Biodistribution, Muscle (% ID/g)
Answer format: numeric, % ID/g implied, no suffix.

Look over these answered cases.
Biodistribution, Muscle reading for NNCC(=O)NCCCN1CCN(CC(=O)[O-])Cc2cccc(n2)CN(CC(=O)[O-])CC1.[Mn+2] [Mn-17] : 0.0196

Biodistribution, Muscle reading for CN(C)C(CCC(=O)NCCCN1CCN(CC(=O)[O-])Cc2cccc(n2)CN(CC(=O)[O-])CC1)C(=O)O.[Mn+2] (stereo not shown) [Mn-18] : 0.0132

Biodistribution, Muscle reading for NNC(CCC(=O)NCCCN1CCN(CC(=O)[O-])Cc2cccc(n2)CN(CC(=O)[O-])CC1)C(=O)O.[Mn+2] (stereo not shown) [Mn-15] : 0.0154

Then there is this compound:
Biodistribution, Muscle reading for NOC(CCC(=O)NCCCN1CCN(CC(=O)[O-])Cc2cccc(n2)CN(CC(=O)[O-])CC1)C(=O)O.[Mn+2] (stereo not shown) [Mn-16] : 0.0669

###

# TEST DESCRIPTION: Reaction rates with butyraldehyde measured by HPLC-ICP-MS (Method B)
# Assay type: physicochemical
# CONDITION LABEL: Method b: butyraldehyde 100 μM, probe 25 μM, pH 7.40
Decide using k (second order rate constant): a value greater than or equal to 4 M⁻¹ s⁻¹ is class 1, a smaller one is class 0.

Would you say NN1CCN(C(=O)CCC(C(=O)[O-])N2CCN(CC(=O)[O-])CCN(CC(=O)[O-])CCN(C(CCC(=O)N3CCN(N)CC3)C(=O)[O-])CC2)CC1.[Gd+3] (stereo not drawn) [Gd-9, cis-1,4-Gd-(CHyd)2] shows k (second order rate constant) at minimum 4 M⁻¹ s⁻¹?
class 0

Would you say `CCCCN1CCN(CCCC(=O)N2CCN(N)CC2)CCN(CC(=O)[O-])CCN(CC(=O)[O-])CC1.[Mn+2]` shows k (second order rate constant) at minimum 4 M⁻¹ s⁻¹?
class 0

Would you say NN1CCN(C(=O)CCC(C(=O)[O-])N2CCN(CC(=O)[O-])CCN(C(CCC(=O)N3CCN(N)CC3)C(=O)[O-])CCN(CC(=O)[O-])CC2)CC1.[Gd+3] (stereo not drawn) [Gd-10, trans-1,7-Gd-(CHyd)2] shows k (second order rate constant) at minimum 4 M⁻¹ s⁻¹?
class 0

Others:
Would you say `NN1CCN(C(=O)CCCN2CCN(CCCC(=O)N3CCN(N)CC3)CCN(CC(=O)[O-])CCN(CC(=O)[O-])CC2)CC1.[Mn+2]` shows k (second order rate constant) at minimum 4 M⁻¹ s⁻¹?
class 1

Would you say `NNC(=O)CCCN1CCN(CCCC(=O)NN)CCN(CC(=O)[O-])CCN(CC(=O)[O-])CC1.[Mn+2]` shows k (second order rate constant) at minimum 4 M⁻¹ s⁻¹?
class 0

###

We begin with a simple list: items and their reported Lung uptake, Naïve.
# System: lungs of bleomycin-injured mice
# TEST DESCRIPTION: PET probe lung uptake in naïve and bleomycin-injured mice (gamma counter)
# Assay type: in vivo, mouse
# CONDITION LABEL: naïve mice, 90 min post injection

Look over these answered cases.
Lung uptake, Naïve reading for O=C([O-])CN1CCN(CC(=O)[O-])CCN(CC(=O)NCCOCCOCCOCCNC(=O)CN2C(=O)CSC2=S)CC1.[68Ga+3] [^68Ga-4] : 0.24 % ID/g

Lung uptake, Naïve reading for CNCCC1=NN(CC(=O)NCCOCCOCCOCCNC(=O)CN2CCN(CC(=O)[O-])CCN(CC(=O)[O-])CC2)C(=O)C1.[68Ga+3] [^68Ga-6] : 0.84 % ID/g

Lung uptake, Naïve reading for NNC(=O)C(N)CCC(=O)NCCOCCOCCOCCNC(=O)CN1CCN(CC(=O)[O-])CCN(CC(=O)[O-])CC1.[68Ga+3] (centres unmarked) [^68Ga-5] : 0.30 % ID/g

Lung uptake, Naïve reading for NC(Cn1cccc1)C(=O)NCCOCCOCCOCCNC(=O)CN1CCN(CC(=O)[O-])CCN(CC(=O)[O-])CC1.[64Cu+2] (centres unmarked) [^64Cu-2] : 0.26 % ID/g

Lung uptake, Naïve reading for NC(Cn1cccc1)C(=O)NCCOCCOCCOCCNC(=O)CN1CCN(CC(=O)[O-])CCN(CC(=O)[O-])CC1.[68Ga+3] (centres unmarked) [^68Ga-2] : 0.45 % ID/g

Others:
Lung uptake, Naïve reading for Cc1cc(O)n(CC(=O)NCCOCCOCCOCCNC(=O)CN2CCN(CC(=O)[O-])CCN(CC(=O)[O-])CC2)n1.[68Ga+3] [^68Ga-3] : 0.82 % ID/g

Lung uptake, Naïve reading for O=C([O-])CN1CCN(CC(=O)[O-])CCN(CC(=O)NCCOCCOCCOCCNC(=O)CN2C(=O)CSC2=S)CC1.[64Cu+2] [^64Cu-4] : 0.38 % ID/g

Lung uptake, Naïve reading for NN1CCN(C(=O)CCOCCOCCOCCOCCNC(=O)CN2CCN(CC(=O)[O-])CCN(CC(=O)[O-])CC2)CC1.[68Ga+3] [^68Ga-1] : 0.27 % ID/g

###

# System: lungs of bleomycin-injured mice
# TEST DESCRIPTION: MR imaging of lung in bleomycin lung fibrosis model
# Assay type: in vivo, mouse
# CONDITION LABEL: Bleomycin injured mice
MEASURED METRIC: Change in lung to muscle ratio (ΔLMR)
Reply with the value as a number alone.

Look over these answered cases.
Change in lung to muscle ratio (ΔLMR) reading for NNC(CCC(=O)NCCCN1CCN(CC(=O)[O-])Cc2cccc(n2)CN(CC(=O)[O-])CC1)C(=O)O.[Mn+2] (stereo not shown) [Mn-15] : 0.13

Change in lung to muscle ratio (ΔLMR) reading for NOC(CCC(=O)NCCCN1CCN(CC(=O)[O-])Cc2cccc(n2)CN(CC(=O)[O-])CC1)C(=O)O.[Mn+2] (stereo not shown) [Mn-16] : 0.18

Change in lung to muscle ratio (ΔLMR) reading for CN(C)C(CCC(=O)NCCCN1CCN(CC(=O)[O-])Cc2cccc(n2)CN(CC(=O)[O-])CC1)C(=O)O.[Mn+2] (stereo not shown) [Mn-18] : 0.04

Others:
Change in lung to muscle ratio (ΔLMR) reading for NNCC(=O)NCCCN1CCN(CC(=O)[O-])Cc2cccc(n2)CN(CC(=O)[O-])CC1.[Mn+2] [Mn-17] : 0.15

###

# TEST DESCRIPTION: Biodistribution of ^nat/52Mn-based probes in naïve mice
# Format: in vivo, mouse
# CONDITION LABEL: 24 h post injection
MEASURED METRIC: Biodistribution, Intestine (% ID/g)
Answer format: numeric, % ID/g implied, no suffix.

Look over these answered cases.
Biodistribution, Intestine reading for `NNCC(=O)NCCCN1CCN(CC(=O)[O-])Cc2cccc(n2)CN(CC(=O)[O-])CC1.[Mn+2]` : 0.0556

Biodistribution, Intestine reading for NNC(CCC(=O)NCCCN1CCN(CC(=O)[O-])Cc2cccc(n2)CN(CC(=O)[O-])CC1)C(=O)O.[Mn+2] (stereo not shown) : 0.0665

Biodistribution, Intestine reading for NOC(CCC(=O)NCCCN1CCN(CC(=O)[O-])Cc2cccc(n2)CN(CC(=O)[O-])CC1)C(=O)O.[Mn+2] (stereo not shown) : 0.1330

Then there is this molecule:
Biodistribution, Intestine reading for CN(C)C(CCC(=O)NCCCN1CCN(CC(=O)[O-])Cc2cccc(n2)CN(CC(=O)[O-])CC1)C(=O)O.[Mn+2] (stereo not shown) : 0.0355
